Hello, the source for this data is patent US11254668B2, in case you need it.

In this section we review reported IC50 values for a set of molecules.
# SUBJECT_OF_TEST: UniProt P23458
# Sequence (P23458 875-1153): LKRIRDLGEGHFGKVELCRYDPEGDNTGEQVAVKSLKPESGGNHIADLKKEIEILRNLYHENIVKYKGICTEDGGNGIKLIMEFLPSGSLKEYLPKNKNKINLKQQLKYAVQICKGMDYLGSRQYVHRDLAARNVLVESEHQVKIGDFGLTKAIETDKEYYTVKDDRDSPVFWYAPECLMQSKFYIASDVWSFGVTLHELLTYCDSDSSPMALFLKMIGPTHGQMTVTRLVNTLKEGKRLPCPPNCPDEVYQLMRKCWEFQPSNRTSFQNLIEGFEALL
# MEASUREMENT_DESCRIPTION: JAK Caliper Enzyme Assay at 1 mM ATP, JAK1
# Assay type: biochemical
# CONDITION_DESCRIPTION: JAK Caliper enzyme assay
State just the number; it will be interpreted in µM.

Below, each entry is followed by its recorded IC50 result.
[[record]]
molecule = "Cn1cc(-c2cc(-c3ccn(C4(CC#N)CN(CC(F)(F)F)C4)n3)n3ncnc3c2)cn1"
subject_of_test = "UniProt P23458"
meas_value = 0.693

[[record]]
molecule = "N#CCC1(n2ncc(-c3cc(-c4cccc(C(N)=O)c4)cc4ncccc34)n2)CC(C#N)C1 (stereo not shown)"
subject_of_test = "UniProt P23458"
meas_value = 0.572

[[record]]
molecule = "N#CC[C@]1(n2cc(-c3cc(-c4cccc(C(N)=O)n4)cc4nccn34)cn2)C[C@H](C#N)C1"
subject_of_test = "UniProt P23458"
meas_value = 0.62

[[record]]
molecule = "COc1nc(-c2cc(-c3cnn([C@]4(CC#N)C[C@H](C#N)C4)n3)c3cccnc3c2)cnc1N"
subject_of_test = "UniProt P23458"
meas_value = 1.2


So the reported IC50 for `Cc1cc(-c2cc(-c3cnn([C@]4(CC#N)C[C@@H](C#N)C4)c3)n3ccnc3c2)[nH]n1` , on UniProt P23458, turned out to be 1.56

====

# SUBJECT_OF_TEST: JAK3 (Homo sapiens (Human), UniProt P52333)
# Sequence (P52333 822-1111): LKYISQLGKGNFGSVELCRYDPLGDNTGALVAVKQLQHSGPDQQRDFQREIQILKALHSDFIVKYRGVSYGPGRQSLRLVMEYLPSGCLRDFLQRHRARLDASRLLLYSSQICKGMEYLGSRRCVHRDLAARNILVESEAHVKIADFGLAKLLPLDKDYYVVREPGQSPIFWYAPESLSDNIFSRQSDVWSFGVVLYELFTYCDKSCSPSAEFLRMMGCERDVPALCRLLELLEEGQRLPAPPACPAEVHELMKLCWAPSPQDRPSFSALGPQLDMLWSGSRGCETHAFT
# MEASUREMENT_DESCRIPTION: JAK Caliper Enzyme Assay at 1 mM ATP, JAK3
# Format: biochemical
pIC50: −log10 of the molar value.
READOUT: pIC50

Below, each entry is followed by its recorded pIC50 result.
[[record]]
compound = "Cn1cc(-c2cc3ncccc3c(-c3ccn(C4(CC#N)CN(CC#N)C4)n3)n2)cn1"
subject_of_test = "JAK3 (Homo sapiens (Human), UniProt P52333)"
meas_value = "< 5.00"

[[record]]
compound = "Cc1cc(-c2nc(-c3cc[nH]n3)cc3ncccc23)nn1[C@]1(CC#N)C[C@@H](C#N)C1"
subject_of_test = "JAK3 (Homo sapiens (Human), UniProt P52333)"
meas_value = "< 5.00"

[[record]]
compound = "N#CC[C@]1(n2ncc(-c3cc(-c4cc(CO)[nH]n4)cc4ncccc34)n2)C[C@H](C#N)C1"
subject_of_test = "JAK3 (Homo sapiens (Human), UniProt P52333)"
meas_value = "< 5.00"

[[record]]
compound = "N#CC[C@]1(n2ncc(-c3cc(-c4cccc(C(=O)O)n4)cc4ncccc34)n2)C[C@@H](C#N)C1"
subject_of_test = "JAK3 (Homo sapiens (Human), UniProt P52333)"
meas_value = "< 5.00"

[[record]]
compound = "CO[C@H]1C[C@@](CC#N)(n2ncc(-c3cc(-c4cc[nH]n4)cc4ncccc34)n2)C1"
subject_of_test = "JAK3 (Homo sapiens (Human), UniProt P52333)"
meas_value = "< 5.00"

[[record]]
compound = "N#CCC1(n2ccc(-c3nc(Oc4cccc(N)n4)cc4ncccc34)n2)CC(C#N)C1 (stereo not drawn)"
subject_of_test = "JAK3 (Homo sapiens (Human), UniProt P52333)"
meas_value = "< 5.00"

[[record]]
compound = "N#CCC1(n2ccc(-c3nc(-c4ccc(O)nc4)cc4ncccc34)n2)CN(C2CC(F)(F)C2)C1"
subject_of_test = "JAK3 (Homo sapiens (Human), UniProt P52333)"
meas_value = "< 5.00"

[[record]]
compound = "N#CCC1(n2ccc(-c3nc(-c4ccn[nH]4)cc4ncccc34)n2)CC(C#N)C1 (stereo not drawn)"
subject_of_test = "JAK3 (Homo sapiens (Human), UniProt P52333)"
meas_value = 5.17


`N#CCC1(n2ccc(-c3nc(-c4ccncc4)cc4ncccc34)n2)CN(CC(F)(F)F)C1` yielded pIC50 of < 5.00

`Cn1nncc1-c1cc(-c2cnn([C@]3(CC#N)C[C@H](C#N)C3)n2)c2cccnc2c1` yielded pIC50 of < 5.00

`CS(=O)(=O)N1CC(CC#N)(n2ccc(-c3nc(-c4cc(F)ccc4O)cc4ncccc34)n2)C1` yielded pIC50 of < 5.00

`N#CC[C@]1(n2ncc(-c3cc(-c4cc(C(N)=O)ccn4)cc4ncccc34)n2)C[C@@H](C#N)C1` yielded pIC50 of < 5.00

`N#CC[C@]1(n2ncc(-c3cc(-c4cc(N)[nH]n4)cc4ncccc34)n2)C[C@@H](C#N)C1` yielded pIC50 of 5.71

`N#CC[C@]1(n2ncc(-c3cc(-c4cccc(N)n4)cc4ncccc34)n2)C[C@H](C#N)C1` yielded pIC50 of < 5.00

`Cc1cc(-c2nc(-c3cn[nH]c3)cc3ncccc23)nn1[C@]1(CC#N)C[C@H](C#N)C1` yielded pIC50 of 5.47
